Assay remarks: Cytotoxicity
Format: cell-based
CC50 at 48 h for assorted molecules
Give the number first and the unit second.

Some molecules with recorded CC50 at 48 h:
Which value of CC50 at 48 h has been reported for O=C(Nc1cc(F)cc(C(F)(F)F)c1)c1cccc([N+](=O)[O-])c1O [JMX0317] in the records? 11.7 µM

Try this molecule next: Cl.NCCOc1ccc(Cl)cc1C(=O)NCC(=O)Nc1ccc([N+](=O)[O-])cc1Cl [JMX0286] 3.78 µM

Another molecule to look at: O=C(Nc1cc(C(F)(F)F)cc(C(F)(F)F)c1)c1cccc([N+](=O)[O-])c1O [JMX0330] 10.2 µM

Continuing:
Which CC50 at 48 h value belongs to O=C(Nc1ccc(C(F)(F)F)cc1Cl)c1cccc([N+](=O)[O-])c1O [JMX0310] ? 10.1 µM

###

System: SARS-CoV-2
Assay remarks: microbe, parasite or virus in culture
Type: cell-based, SARS-CoV-2 (strain 2019-nCoV/USA_WA1/2020)
Measurement name: EC50 (µM)
Hi! Could you send only the number? It should be in µM, unit omitted.

The following molecules have reported results that may help.
Need EC50, item `C[C@H](NC(=O)c1cc(Cl)ccc1O)C(=O)Nc1ccc([N+](=O)[O-])cc1Cl` 9.75

For `CC(C)[C@H](NC(=O)c1cc(Cl)ccc1O)C(=O)Nc1cc(F)cc(C(F)(F)F)c1` then? 4.57

Query `CC(C)[C@H](NC(=O)c1cc(Cl)ccc1O)C(=O)Nc1ccc(C(F)(F)F)cc1Cl` next 1.92

Others:
Query (molecule): `CC(C)[C@H](NC(=O)c1cc(Cl)ccc1O)C(=O)Nc1ccc([N+](=O)[O-])cc1Cl` ; field requested: EC50 2.08

###

// reported EC50 for each item listed
System: SARS-CoV-2
Assay remarks: microbe, parasite or virus in culture
Assay type: cell-based, SARS-CoV-2 (strain 2019-nCoV/USA_WA1/2020)
Report the figure in µM without appending any unit label.

Name the reported EC50 value associated with the compound `O=C(Nc1cc(F)cc(C(F)(F)F)c1)c1cc(Cl)ccc1O` 1.13

Next compound: `CC(C)C[C@H](NC(=O)c1cc(Cl)ccc1O)C(=O)Nc1ccc([N+](=O)[O-])cc1Cl` 1.56

Input CCC(C)[C@H](NC(=O)c1cc(Cl)ccc1O)C(=O)Nc1ccc([N+](=O)[O-])cc1Cl (some centres unmarked) 1.74

Same thing, different compound: `O=C(Nc1ccc([N+](=O)[O-])cc1Cl)c1cccc([N+](=O)[O-])c1O` 1.22

Can you check O=C(NC(Cc1ccccc1)C(=O)Nc1ccc([N+](=O)[O-])cc1Cl)c1cc(Cl)ccc1O (centres unmarked) next? 3.03

Continuing:
I am curious: what EC50 value has been reported for `CC(C)[C@H](NC(=O)c1cc(Cl)ccc1O)C(=O)Nc1ccc(F)c(F)c1` ? 9.75

Okay, and `O=C(Nc1ccc(F)c(F)c1)c1cc(Cl)ccc1O` ? 1.19

Entry `CC(C)[C@H](NC(=O)c1cc(Cl)ccc1O)C(=O)Nc1cc(C(F)(F)F)cc(C(F)(F)F)c1` please 2.51
